Target sequence: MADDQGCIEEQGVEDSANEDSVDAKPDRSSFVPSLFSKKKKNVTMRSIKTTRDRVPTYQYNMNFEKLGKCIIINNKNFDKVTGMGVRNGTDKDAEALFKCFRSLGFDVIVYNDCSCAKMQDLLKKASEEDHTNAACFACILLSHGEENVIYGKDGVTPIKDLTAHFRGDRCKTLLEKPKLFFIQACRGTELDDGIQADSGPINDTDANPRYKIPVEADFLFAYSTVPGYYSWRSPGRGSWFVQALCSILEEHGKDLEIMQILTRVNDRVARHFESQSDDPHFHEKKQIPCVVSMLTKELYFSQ
Please find below IC50 data on the protein given by its sequence compiled from the literature.
Express the result in nM but write the number alone.

Solved entries (count: 3):
[[record]]
molecular_string = "COc1ccc(Br)cc1CC(=O)N[C@H](C(=O)N[C@@H](CC(=O)O)C(=O)CSCc1ccccc1)C(C)C"
measured = 3100

[[record]]
molecular_string = "O=C1C(=O)N(Cc2cn(CCF)nn2)c2ccc(S(=O)(=O)N3CCC[C@H]3COc3ccc(F)cc3F)cc21"
measured = 11.6

[[record]]
molecular_string = "O=C1Nc2ccc(S(=O)(=O)N3CCC[C@H]3COc3ccccc3)cc2C1=O"
measured = 294


Name the recorded IC50 for "COC[C@@H]1CCCN1S(=O)(=O)c1ccc2c(c1)C(=O)C(=O)N2Cc1ccc(OCCOS(=O)(=O)c2ccc(C)cc2)cc1" .
13.8

* * *

Please find below pIC50 data on Caspase-7 (Homo sapiens, UniProt P55210) compiled from the literature.
# target_or_system: Caspase-7 (Homo sapiens, UniProt P55210)
# Sequence (P55210 whole entry): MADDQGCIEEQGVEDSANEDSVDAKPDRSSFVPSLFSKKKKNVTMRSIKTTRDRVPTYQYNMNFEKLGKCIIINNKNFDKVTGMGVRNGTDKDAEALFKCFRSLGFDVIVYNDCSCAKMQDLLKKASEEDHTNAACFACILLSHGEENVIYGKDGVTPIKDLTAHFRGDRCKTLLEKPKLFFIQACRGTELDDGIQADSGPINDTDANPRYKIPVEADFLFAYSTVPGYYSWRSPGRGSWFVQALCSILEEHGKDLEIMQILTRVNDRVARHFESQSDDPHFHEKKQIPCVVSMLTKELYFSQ
pIC50 is a log-scale quantity: -log10 of the concentration expressed in molar.

Solved entries (count: 4):
[[record]]
molecule = "CC(=O)N[C@@H](CC(=O)O)C(=O)N[C@@H](CCC(=O)O)C(=O)N[C@H](C(=O)N[C@H](C=O)CC(=O)O)C(C)C"
measured = 7.06

[[record]]
molecule = "O=C(CCC(=O)N1CCCCC1)Nc1ccc2c(c1)C(=O)C(=O)NC2=O"
measured = 7.19

[[record]]
molecule = "CC(C)[C@H](NC(=O)[C@H](C)NC(=O)[C@H](CC(=O)O)NC(=O)c1ccccc1)C(=O)N[C@@H](CC(=O)O)C(=O)CCCc1ccccc1"
measured = 8.08

[[record]]
molecule = "COc1ccc(OC)c(CC(=O)N[C@H](C(=O)N[C@@H](CC(=O)O)C(=O)CSCC(C)C)C(C)C)c1"
measured = 5.74


# get_value(readout= pIC50, system= Caspase-7 (Homo sapiens, UniProt P55210)) for "O=C1C(=O)N(Cc2ccc(I)cc2)c2ccc(S(=O)(=O)N3CCC[C@H]3COc3ccccc3)cc21"
7.73

# get_value(readout= pIC50, system= Caspase-7 (Homo sapiens, UniProt P55210)) for "O=C1C(=O)N(Cc2ccc(OCCOCCOCCF)cc2)c2ccc(S(=O)(=O)N3CCC[C@H]3COc3ccccc3)cc21"
7.75

# get_value(readout= pIC50, system= Caspase-7 (Homo sapiens, UniProt P55210)) for "N#CC(C#N)=C1C(=O)N(Cc2ccc(OCCOCCF)cc2)c2ccc(S(=O)(=O)N3CC[C@H]3COc3ccccc3)cc21"
7.17

# get_value(readout= pIC50, system= Caspase-7 (Homo sapiens, UniProt P55210)) for "O=C1C(=O)N(Cc2ccc(OCCF)cc2)c2ccc(S(=O)(=O)N3CC[C@H]3COc3ccc(F)cc3F)cc21"
7.81

# get_value(readout= pIC50, system= Caspase-7 (Homo sapiens, UniProt P55210)) for "COc1ccc(CN2C(=O)C(=O)c3cc(S(=O)(=O)N4CCC[C@H]4COc4cccnc4)ccc32)cc1"
7.82

# get_value(readout= pIC50, system= Caspase-7 (Homo sapiens, UniProt P55210)) for "COC[C@@H]1CCCN1S(=O)(=O)c1ccc2c(c1)C(=O)C(=O)N2Cc1ccc(O)cc1"
7.49

# get_value(readout= pIC50, system= Caspase-7 (Homo sapiens, UniProt P55210)) for "N#CC(C#N)=C1C(=O)N(Cc2ccc(OCCF)cc2)c2ccc(S(=O)(=O)N3CCC[C@H]3COc3ccccc3)cc21"
7.02

* * *

Please find below pIC50 data on Caspase-7 (Homo sapiens, UniProt P55210) compiled from the literature.
pIC50: −log10 of the molar value.
Is pIC50 at least 7? Then MET. If not, NOT MET.

[[record]]
molecule = "CCOc1ccc(OCC(=O)OC(C)C)cc1CC(=O)N[C@H](C(=O)N[C@@H](CC(=O)O)C(=O)CSCc1c(F)cccc1Cl)C(C)C"
target_or_system = "Caspase-7 (Homo sapiens, UniProt P55210)"
discrete_label = "NOT MET"


Given "O=C1C(=O)N(Cc2ccc(OCCBr)cc2)c2ccc(S(=O)(=O)N3CCC[C@H]3COc3ccccc3)cc21" , state whether its pIC50 is at least 7.
MET

Given CCCCCCN(C)CC(=O)C(CC(=O)O)NC(=O)[C@H](CC)n1cc(C(C)(C)C)nc(NCc2nonc2C)c1=O (some centres undefined) , state whether its pIC50 is at least 7.
MET

Given "O=C1NC(=O)c2ccccc2C1=O" , state whether its pIC50 is at least 7.
NOT MET

Given O=C(NCc1ccco1)c1csc(C2COc3ccccc3O2)n1 (centres undefined) , state whether its pIC50 is at least 7.
NOT MET

Given CN(C)C(=O)c1csc(C2COc3ccccc3O2)n1 (centres undefined) , state whether its pIC50 is at least 7.
NOT MET

Given O=C(Sc1cccs1)c1csc(C2COc3ccccc3O2)n1 (centres undefined) , state whether its pIC50 is at least 7.
NOT MET

Given "N#CC(C#N)=C1C(=O)N(Cc2ccc(OCCF)cc2)c2ccc(S(=O)(=O)N3CC[C@H]3COc3cccnc3)cc21" , state whether its pIC50 is at least 7.
MET
